This section presents compounds with their documented AUC values.
- Assay Text: Area under curve was determined using trapezoidal rule after oral administration in cynomolgus monkeys
- Type: ADME
- Measurement Setup: cercopithecidae, in vivo
Response body: numeric value in ng·h/mL, unit text excluded.

Chemical String: Cn1cc(C(=O)O)c(=O)c2cc(F)c(N3CCN(c4ccccn4)CC3)c(C(F)(F)F)c21
AUC, ng·h/mL: 17200

Okay, now this compound:
Look at this compound and give its reported AUC. Cn1cc(C(=O)O)c(=O)c2cc(F)c(N3CCN(c4ncccn4)CC3)c(C(F)(F)F)c21
18400

====

- Assay Text: Half-life period after oral administration in cynomolgus monkeys
- Format: ADME, organism-based
- Measurement Setup: cercopithecidae, in vivo
Outcome Measure: half-life (h)
Response body: numeric value in h, unit text excluded.

Chemical String: Cn1cc(C(=O)O)c(=O)c2cc(F)c(N3CCN(c4ncccn4)CC3)c(C(F)(F)F)c21
Measured Result: 8.7

Look at this molecule and give its reported half-life. Cn1cc(C(=O)O)c(=O)c2cc(F)c(N3CCN(c4ccccn4)CC3)c(C(F)(F)F)c21
7.5
